# inhibition at 10 µM values compiled below
target: MAP4K4 (HGK) (Homo sapiens, UniProt O95819); assay: Z'-LYTE SelectScreen biochemical kinase assay MAP4K4 (HGK); conditions: read-out: % Inhibition mean MAP4K4 (HGK)
Sequence (O95819 whole entry): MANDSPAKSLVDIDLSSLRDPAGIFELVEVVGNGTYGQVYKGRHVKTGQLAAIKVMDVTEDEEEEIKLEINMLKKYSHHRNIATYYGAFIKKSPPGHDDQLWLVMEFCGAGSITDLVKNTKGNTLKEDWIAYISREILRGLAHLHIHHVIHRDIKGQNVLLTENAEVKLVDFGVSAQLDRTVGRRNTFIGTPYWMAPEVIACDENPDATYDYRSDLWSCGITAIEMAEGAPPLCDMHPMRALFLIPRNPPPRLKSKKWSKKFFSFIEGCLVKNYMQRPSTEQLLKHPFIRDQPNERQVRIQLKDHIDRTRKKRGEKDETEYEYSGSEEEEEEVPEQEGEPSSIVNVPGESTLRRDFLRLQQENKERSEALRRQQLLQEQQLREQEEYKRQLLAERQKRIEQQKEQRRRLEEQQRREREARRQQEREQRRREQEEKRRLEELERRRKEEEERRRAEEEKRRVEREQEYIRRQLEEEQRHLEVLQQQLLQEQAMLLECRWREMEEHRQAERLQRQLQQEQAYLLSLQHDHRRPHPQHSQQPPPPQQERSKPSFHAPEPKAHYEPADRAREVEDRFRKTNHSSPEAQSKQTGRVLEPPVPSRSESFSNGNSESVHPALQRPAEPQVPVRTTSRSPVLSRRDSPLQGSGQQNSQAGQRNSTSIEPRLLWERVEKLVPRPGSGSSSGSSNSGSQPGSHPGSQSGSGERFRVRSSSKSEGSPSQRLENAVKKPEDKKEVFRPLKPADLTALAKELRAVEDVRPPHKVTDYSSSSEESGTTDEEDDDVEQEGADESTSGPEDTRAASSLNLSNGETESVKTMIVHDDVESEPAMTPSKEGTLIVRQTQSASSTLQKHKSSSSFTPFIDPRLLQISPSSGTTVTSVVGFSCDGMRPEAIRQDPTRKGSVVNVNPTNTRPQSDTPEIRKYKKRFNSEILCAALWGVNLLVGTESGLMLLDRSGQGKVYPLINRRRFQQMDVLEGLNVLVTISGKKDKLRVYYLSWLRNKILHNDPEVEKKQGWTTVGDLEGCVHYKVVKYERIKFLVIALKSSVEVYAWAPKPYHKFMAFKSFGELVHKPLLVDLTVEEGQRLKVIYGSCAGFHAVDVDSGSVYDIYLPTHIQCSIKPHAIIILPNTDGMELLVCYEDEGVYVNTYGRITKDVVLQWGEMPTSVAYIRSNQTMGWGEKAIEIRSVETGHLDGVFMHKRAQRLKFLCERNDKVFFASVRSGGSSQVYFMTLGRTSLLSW

{"compound": "Cc1cc(F)ccc1-c1cccn2nc(NC3CCc4c(cnn4C(C)C)C3)nc12 (stereo not drawn)", "value_unit": "%", "inhibition at 10 µM": 37}
{"compound": "Cc1cc(F)ccc1-c1cccn2nc(NC3CCc4c(cnn4CC(C)C)C3)nc12 (stereo not drawn)", "value_unit": "%", "inhibition at 10 µM": 2}
{"compound": "CCn1ncc2c1CCC(Nc1nc3c(-c4cccc(Cl)c4)cccn3n1)C2 (stereo not drawn)", "value_unit": "%", "inhibition at 10 µM": 57}
{"compound": "CCn1nc(Cl)c2c1CCC(Nc1nc3c(-c4ccc(F)cc4C)cccn3n1)C2 (stereo not drawn)", "value_unit": "%", "inhibition at 10 µM": 50}
{"compound": "CCCn1ncc2c1CCC(Nc1nc3c(-c4ccc(F)cc4C)cccn3n1)C2 (stereo not drawn)", "value_unit": "%", "inhibition at 10 µM": 40}
{"compound": "CCn1ncc2c1CCC(Nc1nc3c(-c4ccc(OC)nc4)cccn3n1)C2 (stereo not drawn)", "value_unit": "%", "inhibition at 10 µM": 16}
{"compound": "Cc1cc(F)ccc1-c1cccn2nc(Nc3ccc4c(cnn4C)c3)nc12", "value_unit": "%", "inhibition at 10 µM": 6}
{"compound": "CCn1ncc2c1CC[C@H](Nc1nc3c(-c4ccc(F)c(Cl)c4)cccn3n1)C2", "value_unit": "%", "inhibition at 10 µM": 11}
{"compound": "CCCCn1ncc2c1CCC(Nc1nc3c(-c4ccc(F)cc4C)cccn3n1)C2 (stereo not drawn)", "value_unit": "%", "inhibition at 10 µM": 48}

---

# inhibition at 10 µM values compiled below
target: MAP4K4 (HGK) (Homo sapiens); assay: Z'-LYTE SelectScreen biochemical kinase assay MAP4K4 (HGK); conditions: 10 μmolar compound concentration; ATP at Km app; read-out: MAP4K4 (HGK) inhibition

{"molecule": "CCc1nn(C)c2c1CCC(Nc1nc3c(-c4ccc(F)cc4C)cccn3n1)C2 (stereo not drawn) [Example 54]", "inhibition at 10 µM": "< 40%"}
{"molecule": "CCn1ncc2c1CCC(Nc1nc3c(-c4cncc(OC)c4)cccn3n1)C2 (stereo not drawn) [Example 70]", "inhibition at 10 µM": "40 to 80%"}
{"molecule": "CCn1ncc2c1CCC(Nc1nc3c(-c4cncc(Cl)c4)cccn3n1)C2 (stereo not drawn) [Example 73]", "inhibition at 10 µM": "40 to 80%"}
{"molecule": "CCn1ncc2c1CCC(Nc1nc3c(-c4ccc(C)nc4)cccn3n1)C2 (stereo not drawn) [Example 67]", "inhibition at 10 µM": "40 to 80%"}
{"molecule": "CCn1ncc2c1CCC(Nc1nc3c(-c4ccc(OC)nc4)cccn3n1)C2 (stereo not drawn) [Example 71]", "inhibition at 10 µM": "< 40%"}
{"molecule": "CCn1ncc2c1CCC(Nc1nc3c(-c4ccc(F)cc4C)cccn3n1)C2 (stereo not drawn) [Example 42]", "inhibition at 10 µM": "< 40%"}
{"molecule": "CCn1ncc2c1CC[C@@H](Nc1nc3c(-c4ccc(F)cc4C)cccn3n1)C2 [Example R-42]", "inhibition at 10 µM": "40 to 80%"}
{"molecule": "CC1(C)NC(=O)c2ccc(Nc3nc4c(-c5cccc(F)c5)cccn4n3)cc21 [Cpd. 302 in WO09155551, reference compound]", "inhibition at 10 µM": "> 80%"}
{"molecule": "CC1(C)C(=O)Nc2ccc(Nc3nc4c(-c5cccc(F)c5)cccn4n3)cc21 [Cpd. 263 in WO09155551, reference compound]", "inhibition at 10 µM": "> 80%"}
{"molecule": "CCn1ncc2c1CCC(Nc1nc3c(-c4cccnc4OC)cccn3n1)C2 (stereo not drawn) [Example 69]", "inhibition at 10 µM": "< 40%"}
{"molecule": "CCCCn1ncc2c1CCC(Nc1nc3c(-c4ccc(F)cc4C)cccn3n1)C2 (stereo not drawn) [Example 46]", "inhibition at 10 µM": "40 to 80%"}
{"molecule": "CCn1ncc2c1CCC(Nc1nc3c(-c4ccccc4C)cccn3n1)C2 (stereo not drawn) [Example 56]", "inhibition at 10 µM": "40 to 80%"}
{"molecule": "CCn1ncc2c1CCC(Nc1nc3c(-c4ccccc4)cccn3n1)C2 (stereo not drawn) [Example 57]", "inhibition at 10 µM": "40 to 80%"}
{"molecule": "Cc1cc(F)ccc1-c1cccn2nc(NC3CCc4c(cnn4C(C)C)C3)nc12 (stereo not drawn) [Example 44]", "inhibition at 10 µM": "< 40%"}
{"molecule": "CCn1ncc2c1CC[C@H](Nc1nc3c(-c4ccc(F)c(Cl)c4)cccn3n1)C2 [Example S-61]", "inhibition at 10 µM": "< 40%"}
{"molecule": "Cc1cc(F)ccc1-c1cccn2nc(NC3CCc4c(cnn4CC(C)C)C3)nc12 (stereo not drawn) [Example 45]", "inhibition at 10 µM": "< 40%"}
{"molecule": "CCCCCn1ncc2c1CCC(Nc1nc3c(-c4ccc(F)cc4C)cccn3n1)C2 (stereo not drawn) [Example 47]", "inhibition at 10 µM": "< 40%"}
{"molecule": "CCn1ncc2c1CCC(Nc1nc3c(-c4cccnc4)cccn3n1)C2 (stereo not drawn) [Example 63]", "inhibition at 10 µM": "40 to 80%"}

Where do these numbers come from? They come from patent US11339161B2.
